// melting point lookup, one value per entry

Entry CCOC(=O)C(=Cc1cccn2cc(C(F)(F)F)nc12)N=[N+]=[N-] , melting point reported as 140 to 142 °C

Entry COc1cc(C=O)ccc1Oc1nc(Nc2cccc(C(=O)O)c2)nc(Oc2ccccc2)n1 , melting point reported as 218 to 220 °C

Entry COc1cc(CCc2ccccc2)c(OC)c2c1C(=O)c1ccccc1C2=O , melting point reported as 100 °C

New cases:
Entry Cc1onc(-c2ccccc2)c1-c1nc(-c2c(F)cccc2Cl)nn1C , melting point reported as 120 to 125 °C

Entry Cc1ccc(C)c(OCc2ccccc2C(=O)c2cc(C)no2)c1 , melting point reported as 106 to 108 °C

Entry CN(C)C(=C(C#N)C#N)N(C)N=Cc1ccccc1 , melting point reported as 127 to 128 °C

Entry c1cnc2c(c1)N(c1ccc3[nH]cc(C4CCNCC4)c3c1)CN2 , melting point reported as 260 to 268 °C

Entry CC(C)(C)[Si](ON1C(=O)c2ccccc2C1=O)(c1ccccc1)c1ccccc1 , melting point reported as 138 to 143 °C
